Biological target: T1, TerR43-138 (Aspergillus terreus SBUG844, UniProt Q0D1P5 43-138)
T1 sequence: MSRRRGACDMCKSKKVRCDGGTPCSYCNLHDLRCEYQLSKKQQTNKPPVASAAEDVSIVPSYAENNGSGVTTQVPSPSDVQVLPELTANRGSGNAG
Test: SPR; molar ratio 1.06; SPR (Biacore 2000, SA-coated CM3 chip): 10 mM HEPES pH 7.4, 150 mM NaCl, 0.005% P20, 5 mM beta-mercaptoethanol, 1 uM ZnCl2, 25 C; protein 12.5-6400 nM; 1:1 model with mass transport
Settings: protein: recombinant; (pET-29a; mass used 10218 Da); label: biotin on one strand; 18 bp duplex
parameterMeasured: pKd
Please treat pKd as minus the base-10 logarithm of the molar concentration.

Incoming: # lookup: pKd of BS8 (dsDNA) DNA 1: CGGGCGGTTAGGCGGCAT DNA 2: ATGCCGCCTAACCGCCCG
Outgoing: 4.76
